Reference source for all entries: ChEMBL document CHEMBL3400066

pIC50: −log10 of the molar value.
The following are reported pIC50 results, target or system High affinity 3',5'-cyclic-AMP phosphodiesterase 7A (Homo sapiens).
measured.endpoint: pIC50

1) CCn1c(NC(C)C)nc2c(-c3sc(C)nc3C)csc2c1=O ... 8.19
2) CCn1c(NC(C)C)nc2c(-c3cccnc3)csc2c1=O ... 8.36
3) CCn1c(NC(C)C)nc2c(C3CCN(C(C)C)CC3)csc2c1=O ... 6.77
4) CCn1c(NC(C)C)nc2c(-c3ccnc(OC)c3)csc2c1=O ... 8.34
5) CCn1c(NC(C)C)nc2c(C3CCN(C(=O)CC(C)C)C3)csc2c1=O (stereo unspecified) ... 8.09
6) CCn1c(NC2CC2)nc2ccsc2c1=O ... 5.59

----------
- target.under.test: High affinity 3',5'-cyclic-AMP phosphodiesterase 7A (Homo sapiens, UniProt Q13946)
- Sequence (Q13946 whole entry): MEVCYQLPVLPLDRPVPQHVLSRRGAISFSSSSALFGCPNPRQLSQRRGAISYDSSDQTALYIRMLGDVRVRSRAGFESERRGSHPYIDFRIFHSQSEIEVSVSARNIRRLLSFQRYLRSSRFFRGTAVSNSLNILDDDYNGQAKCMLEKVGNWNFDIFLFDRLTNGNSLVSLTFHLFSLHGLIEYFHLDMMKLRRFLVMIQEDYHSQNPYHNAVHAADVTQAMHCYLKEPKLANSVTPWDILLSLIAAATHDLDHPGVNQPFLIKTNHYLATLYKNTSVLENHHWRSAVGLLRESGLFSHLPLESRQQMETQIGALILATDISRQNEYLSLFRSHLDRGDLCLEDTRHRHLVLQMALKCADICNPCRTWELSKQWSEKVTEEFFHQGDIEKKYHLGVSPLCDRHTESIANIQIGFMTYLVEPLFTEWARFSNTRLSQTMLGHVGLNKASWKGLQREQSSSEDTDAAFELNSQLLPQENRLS
- experiment.description: Inhibition of human PDE7A expressed in insect cells assessed as inhibition of [3H]cAMP to [3H]AMP hydrolysis after 30 mins by scintillation counting
Listed next: entries and their corresponding IC50.
measured.endpoint: IC50 (nM)

1. CCn1c(NC(C)C)nc2c(C3CCN(C(C)=O)CC3)csc2c1=O ... 20
2. CCn1c(N[C@H]2CC[C@H](C(=O)OC)CC2)nc2ccsc2c1=O ... 2100
3. CCn1c(NC(C)C)nc2c(-c3cncnc3)csc2c1=O ... 7.6
4. CCn1c(NC(C)C)nc2c(C3CCCN(C(C)=O)C3)csc2c1=O (stereo unspecified) ... 5.1
5. CCn1c(NC(C)C)nc2c(C3CCN(C(=O)C(C)C)C3)csc2c1=O (stereo unspecified) ... 8.4
6. CCn1c(NC(C)C)nc2c(-c3ccco3)csc2c1=O ... 12
7. CCn1c(NC(C)C)nc2c(C3CCN(c4ccccn4)CC3)csc2c1=O ... 6.8
8. CCn1c(N[C@H]2CC[C@H](C(=O)O)CC2)nc2ccsc2c1=O ... 1300
9. CCn1c(NC(C)C)nc2c(C3CCN(C(=O)c4cccc(C)n4)C3)csc2c1=O (stereo unspecified) ... 3.3
10. CCn1c(NC(C)C)nc2c(C3CCNCC3)csc2c1=O ... 190
11. CCn1c(NC(C)C)nc2c(C3CCN(C(C)=O)C3)csc2c1=O (stereo unspecified) ... 15
12. CCn1c(NC2CCOCC2)nc2ccsc2c1=O ... 430
13. CCn1c(N[C@H]2CC[C@H](O)CC2)nc2ccsc2c1=O ... 2300
14. CCn1c(NC(C)C)nc2c(C3CCN(C(=O)c4ccccn4)C3)csc2c1=O (stereo unspecified) ... 2.7
15. CCCNc1nc2ccsc2c(=O)n1CC ... 1400
16. CCn1c(NC2CCC2)nc2ccsc2c1=O ... 300

----------
- experiment.description: Solubility of the compound in phosphate buffer at pH 6.8
- Format: physicochemical
measured.endpoint: solubility (mg/mL)

1. CCn1c(NC(C)C)nc2c(C3CCN(C(C)C)CC3)csc2c1=O ... 0.35
2. CCn1c(NC(C)C)nc2c(C3CCNCC3)csc2c1=O ... 1.1
3. CCCNc1nc2ccsc2c(=O)n1CC ... 0.069
4. CCn1c(NC(C)C)nc2c(C3CCN(C(=O)CC(C)C)C3)csc2c1=O (stereo unspecified) ... 0.015
5. CCn1c(NC(C)C)nc2c(C3CCN(C(C)=O)CC3)csc2c1=O ... 0.074
6. CCn1c(NC(C)C)nc2c(C3CCN(C(=O)c4cccc(C)n4)C3)csc2c1=O (stereo unspecified) ... 0.15

----------
- target.under.test: UniProt:Q07343
- experiment.description: Inhibition of human PDE4B expressed in insect cells assessed as inhibition of [3H]cAMP to [3H]AMP hydrolysis after 30 mins by scintillation counting
Quick reference: IC50 of the listed items.
measured.endpoint: IC50

1. CCn1c(NC(C)C)nc2c(C3CCCN(C(C)=O)C3)csc2c1=O (stereo unspecified) ... 560 nM
2. CCn1c(NC(C)C)nc2c(-c3cccnc3)csc2c1=O ... 520 nM
3. CCn1c(NC(C)C)nc2c(-c3ccnc(OC)c3)csc2c1=O ... 420 nM
4. CCn1c(NC(C)C)nc2c(-c3cncnc3)csc2c1=O ... 1100 nM
5. CCn1c(NC(C)C)nc2c(C3CCN(C(C)=O)C3)csc2c1=O (stereo unspecified) ... 1900 nM
6. CCn1c(NC2CCOCC2)nc2ccsc2c1=O ... 12000 nM

----------
- target.under.test: cGMP-inhibited 3',5'-cyclic phosphodiesterase 3A (Homo sapiens)
- Sequence (Q14432 whole entry): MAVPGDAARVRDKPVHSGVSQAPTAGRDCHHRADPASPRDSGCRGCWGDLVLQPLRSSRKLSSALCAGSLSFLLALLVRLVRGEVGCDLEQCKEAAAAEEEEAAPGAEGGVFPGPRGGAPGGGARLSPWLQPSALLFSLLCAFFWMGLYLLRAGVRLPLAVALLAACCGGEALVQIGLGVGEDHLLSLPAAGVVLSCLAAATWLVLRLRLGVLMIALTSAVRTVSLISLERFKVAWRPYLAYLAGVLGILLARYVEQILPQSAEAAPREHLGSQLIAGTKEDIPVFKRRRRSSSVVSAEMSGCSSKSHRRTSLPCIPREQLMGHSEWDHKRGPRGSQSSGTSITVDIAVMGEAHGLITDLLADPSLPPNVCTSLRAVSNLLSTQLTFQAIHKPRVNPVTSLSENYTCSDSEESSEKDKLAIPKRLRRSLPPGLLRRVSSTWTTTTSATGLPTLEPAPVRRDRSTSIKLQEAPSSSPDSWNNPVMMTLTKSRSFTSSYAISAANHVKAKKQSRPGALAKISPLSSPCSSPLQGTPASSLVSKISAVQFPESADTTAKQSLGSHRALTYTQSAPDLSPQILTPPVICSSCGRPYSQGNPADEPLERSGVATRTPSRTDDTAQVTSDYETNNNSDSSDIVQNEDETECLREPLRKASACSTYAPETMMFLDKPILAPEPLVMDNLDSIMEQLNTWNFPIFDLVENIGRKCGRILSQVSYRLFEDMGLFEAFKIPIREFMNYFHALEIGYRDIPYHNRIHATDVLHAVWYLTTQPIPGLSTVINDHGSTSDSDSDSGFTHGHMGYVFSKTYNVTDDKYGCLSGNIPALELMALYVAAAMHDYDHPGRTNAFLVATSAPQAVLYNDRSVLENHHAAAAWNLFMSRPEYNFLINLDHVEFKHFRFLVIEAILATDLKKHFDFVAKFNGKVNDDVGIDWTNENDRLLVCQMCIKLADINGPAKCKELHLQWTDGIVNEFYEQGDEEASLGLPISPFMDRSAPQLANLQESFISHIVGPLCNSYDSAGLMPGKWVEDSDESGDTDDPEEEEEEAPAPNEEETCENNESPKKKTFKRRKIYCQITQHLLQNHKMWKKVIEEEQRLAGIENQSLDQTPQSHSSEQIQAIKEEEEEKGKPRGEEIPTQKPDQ
pIC50: −log10 of the molar value.
measured.endpoint: pIC50

1) CCn1c(NC(C)C)nc2c(C3CCN(C(=O)c4ccccn4)C3)csc2c1=O (stereo unspecified) ... 5.48

----------
Observed pIC50 values for 3',5'-cyclic-AMP phosphodiesterase 4B (Homo sapiens, UniProt Q07343) are listed in what follows.
pIC50: −log10 of the molar value.
measured.endpoint: pIC50

1) CCn1c(NC(C)C)nc2c(C3CCN(C(C)=O)CC3)csc2c1=O ... 5.82
2) CCn1c(NC(C)C)nc2c(-c3sc(C)nc3C)csc2c1=O ... 6.70
3) CCn1c(N[C@H]2CC[C@H](O)CC2)nc2ccsc2c1=O ... 4.62
4) CCn1c(NC(C)C)nc2c(C3CCN(C(=O)c4cccc(C)n4)C3)csc2c1=O (configuration not stated) ... 7.34
5) CCn1c(NC(C)C)nc2c(C3CCN(C(=O)c4ccccn4)C3)csc2c1=O (configuration not stated) ... 6.70
6) CCn1c(NC(C)C)nc2c(-c3ccco3)csc2c1=O ... 6.26
7) CCn1c(NC(C)C)nc2c(C3CCN(c4ccccn4)CC3)csc2c1=O ... 6.36

----------
- experiment.description: Solubility of the compound in phosphate buffer at pH 6.8
- Assay type: physicochemical
// criterion not met strictly below 40 µg/mL in solubility; criterion met otherwise

1. CCn1c(NC(C)C)nc2c(C3CCN(C(=O)c4ccccn4)C3)csc2c1=O (stereo not given) ... criterion not met
2. CCn1c(NC(C)C)nc2ccsc2c1=O ... criterion met
3. CCn1c(N[C@H]2CC[C@H](C(=O)O)CC2)nc2ccsc2c1=O ... criterion met
4. CCn1c(NC(C)C)nc2c(-c3ccnc(OC)c3)csc2c1=O ... criterion not met
5. CCn1c(N[C@H]2CC[C@H](O)CC2)nc2ccsc2c1=O ... criterion met
6. CCn1c(NC(C)C)nc2c(-c3sc(C)nc3C)csc2c1=O ... criterion not met
7. CCn1c(NC(C)C)nc2c(-c3cccnc3)csc2c1=O ... criterion not met
8. CCn1c(NC(C)C)nc2c(-c3ccco3)csc2c1=O ... criterion not met
9. CCn1c(NC2CCC2)nc2ccsc2c1=O ... criterion not met
10. CCn1c(NC(C)C)nc2c(C3CCN(C(C)=O)C3)csc2c1=O (stereo not given) ... criterion met
11. CCn1c(NC(C)C)nc2c(C3CCN(C(=O)C(C)C)C3)csc2c1=O (stereo not given) ... criterion met
12. CCn1c(NC(C)C)nc2c(-c3cncnc3)csc2c1=O ... criterion not met
13. CCn1c(NC(C)C)nc2c(C3CCN(C(=O)c4ccccc4)C3)csc2c1=O (stereo not given) ... criterion not met
14. CCn1c(NC(C)C)nc2c(C3CCCN(C(C)=O)C3)csc2c1=O (stereo not given) ... criterion met
15. CCn1c(N[C@H]2CC[C@H](C(=O)OC)CC2)nc2ccsc2c1=O ... criterion not met
16. CCn1c(NC2CC2)nc2ccsc2c1=O ... criterion met
17. CCn1c(NC(C)C)nc2c(C3CCN(C(=O)c4ncccc4C)C3)csc2c1=O (stereo not given) ... criterion met
18. CCn1c(NC(C)(C)C)nc2ccsc2c1=O ... criterion not met
19. CCn1c(NC2CCOCC2)nc2ccsc2c1=O ... criterion not met
20. CCNc1nc2ccsc2c(=O)n1CC ... criterion met
